In this section, each of the molecules is paired with its reported pIC50.
- measured_target: rα3β2 nAChR (Rattus norvegicus, UniProt P04757+P12390)
- Sequence (P04757 26-499): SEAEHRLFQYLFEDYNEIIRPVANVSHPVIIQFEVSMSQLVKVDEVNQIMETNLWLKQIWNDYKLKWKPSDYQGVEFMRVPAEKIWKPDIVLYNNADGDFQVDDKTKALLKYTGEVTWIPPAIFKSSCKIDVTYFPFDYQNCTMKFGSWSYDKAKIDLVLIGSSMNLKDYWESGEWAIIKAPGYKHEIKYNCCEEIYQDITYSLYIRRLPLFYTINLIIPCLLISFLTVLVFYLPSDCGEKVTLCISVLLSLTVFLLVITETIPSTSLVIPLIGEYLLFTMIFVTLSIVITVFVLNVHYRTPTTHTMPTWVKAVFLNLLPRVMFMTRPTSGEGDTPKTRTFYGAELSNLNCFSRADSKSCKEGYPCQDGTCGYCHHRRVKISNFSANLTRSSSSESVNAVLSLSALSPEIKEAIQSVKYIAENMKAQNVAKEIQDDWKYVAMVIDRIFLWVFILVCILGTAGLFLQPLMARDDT
- Sequence (P12390 25-500): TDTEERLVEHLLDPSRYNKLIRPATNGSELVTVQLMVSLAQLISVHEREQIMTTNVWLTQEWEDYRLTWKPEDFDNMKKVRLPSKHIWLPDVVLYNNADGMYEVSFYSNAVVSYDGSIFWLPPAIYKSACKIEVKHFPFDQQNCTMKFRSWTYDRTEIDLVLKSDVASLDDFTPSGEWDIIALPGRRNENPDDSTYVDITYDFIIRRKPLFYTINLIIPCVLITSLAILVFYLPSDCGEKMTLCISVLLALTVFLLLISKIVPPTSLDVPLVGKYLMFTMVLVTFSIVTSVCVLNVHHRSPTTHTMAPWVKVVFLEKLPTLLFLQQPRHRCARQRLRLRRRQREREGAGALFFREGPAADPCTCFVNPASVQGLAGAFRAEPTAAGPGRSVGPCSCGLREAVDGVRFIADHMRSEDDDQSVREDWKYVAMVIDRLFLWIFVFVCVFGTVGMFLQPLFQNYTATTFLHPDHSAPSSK
- assay_procedure: cell-based
pIC50: −log10 of the molar value. Positions of bridges follow the written chain, without caps; N, C: chain ends. Residues, ends and D or L forms follow the SMILES beside them.

[
  {
    "molecule": "CC[C@H](C)[C@@H]1NC(=O)[C@H](Cc2c[nH]cn2)NC(=O)[C@@H]2CCCN2C(=O)[C@H](CC(N)=O)NC(=O)[C@H](CC(N)=O)NC(=O)[C@H](C(C)C)NC(=O)[C@H](CC(N)=O)NC(=O)[C@@H]2CSSC[C@H](NC(=O)CN)C(=O)N[C@@H](CSSC[C@@H](C(N)=O)NC1=O)C(=O)N[C@@H](CO)C(=O)NCC(=O)N1CCC[C@H]1C(=O)N[C@@H](C)C(=O)N2 [[H5G]RegIIA] (H-GCCSGPACNVNNPHIC-NH2; disulfide 2-8, 3-16)",
    "pIC50": "< 5.00"
  },
  {
    "molecule": "CC[C@H](C)[C@@H]1NC(=O)[C@H](Cc2c[nH]cn2)NC(=O)[C@@H]2CCCN2C(=O)[C@H](CC(N)=O)NC(=O)[C@H](CC(N)=O)NC(=O)[C@H](C(C)C)NC(=O)[C@H](CC(N)=O)NC(=O)[C@@H]2CSSC[C@H](NC(=O)CN)C(=O)N[C@@H](CSSC[C@@H](C(N)=O)NC1=O)C(=O)N[C@@H](CO)C(=O)N[C@@H](CC(C)C)C(=O)N1CCC[C@H]1C(=O)N[C@@H](C)C(=O)N2 [[H5L]RegIIA] (H-GCCSLPACNVNNPHIC-NH2; disulfide 2-8, 3-16)",
    "pIC50": "< 5.00"
  }
]
